Quick list: normalized growth per entry.
# Experiment notes: chemical genetic growth profiling, strain panel (AID 1159580);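 also: tested at 20 µM; growth read once vehicle control cultures reached saturation at 30 °C; 1 = growth at the plate median or of vehicle wells; lower values mean less growth of the strain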
# Study conditions: S. cerevisiae deletion strains, growth OD, locus YPL240C, strain hsp82, active compounds read low
The whole screen tested about 5,500 compounds, of which about 2,000 (36%) were called active. About 18% were inconclusive and are not listed. The list shows a part of the results.
Observed property: normalized growth

1) CO[C@H]1CC(O[C@@H]2/C(C)=C/C[C@@H]3C[C@@H](C[C@]4(CC[C@H](C)[C@@H](C5CCCCC5)O4)O3)OC(=O)[C@@H]3C=C(C)/C(=N\O)[C@H]4OC/C(=C\C=C\[C@@H]2C)[C@]43O)O[C@@H](C)C1O (some centres not stated)
1.01
2) C=C1c2cccc(O)c2C(O)=C2C(=O)[C@]3(O)C(O)=C(C(N)=O)C(=O)[C@@H](N(C)C)[C@@H]3[C@@H](O)[C@H]12
1.01
3) COc1ccccc1OCC(O)CO (configuration not stated)
1.02
4) CN(C)[C@@H]1C(=O)C(C(N)=O)=C(O)[C@@]2(O)C(=O)C3=C(O)c4c(O)cccc4[C@@](C)(O)[C@H]3[C@H](O)[C@@H]12
1.03
5) NS(=O)(=O)c1cc2c(cc1Cl)NC(CSCc1ccccc1)=NS2(=O)=O
1.01
6) C[C@H]1c2cccc(O)c2C(O)=C2C(=O)[C@]3(O)C(O)=C(C(N)=O)C(=O)[C@@H](N(C)C)[C@@H]3[C@@H](O)[C@@H]21
0.984
7) C=C1c2c(Cl)ccc(O)c2C(O)=C2C(=O)[C@]3(O)C(O)=C(C(N)=O)C(=O)[C@@H](N(C)C)[C@@H]3[C@@H](O)[C@H]12
1
